Sequence of the target: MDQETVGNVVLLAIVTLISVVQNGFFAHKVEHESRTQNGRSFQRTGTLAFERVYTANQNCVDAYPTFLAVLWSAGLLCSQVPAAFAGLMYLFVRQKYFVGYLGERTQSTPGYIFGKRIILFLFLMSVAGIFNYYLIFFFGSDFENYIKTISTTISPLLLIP
pIC50: −log10 of the molar value.
Listed compounds paired with reported pIC50

compound | pIC50
CC1Cc2c(OCc3ccccn3)ccc3c2c(c(CSc2ccccc2C(=O)O)n3Cc2ccc(Cl)cc2)S1 (configuration not stated) | 6.12
CC1Cc2c(OCc3cc4ccccc4cn3)ccc3c2c(c(CSc2ccccc2C(=O)O)n3Cc2ccc(Cl)cc2)S1 (configuration not stated) | 5.54
